# Test system: FOXC2-expressing HMLER cells
# Experiment Summary: Cell Titer Glo viability of FOXC2-HMLER cells (high throughput screen and 10-point response)
# Type: cell-based
# Condition Set: Homo sapiens; scored relative to parent compound 3; 72 hours; read-out: Activity Score, inhibition of FOXC2-expressing HMLER cells by Formula III compounds
Quick reference: IC50 of the listed items.
Recorded Metric: IC50

                                   molecule      result
0  Cc1c(C(=O)N2CCN(c3ccccc3F)CC2)cccc1-n1nnc2cccnc21 [Compound 3BW]     > 20 µM
1  Cc1ccc(C(=O)NCCCN2CCc3ccccc3C2)cc1-n1nnc2cccnc21 [Compound 3BL]     > 20 µM
2  Cc1ccc(C(=O)N2CCN(c3cccc(Cl)c3)CC2)cc1-n1nnc2cccnc21 [Compound 3W]  1 to 20 µM
3  CCCCN(C)C(=O)c1cccc(-n2nnc3cccnc32)c1C [Compound 3BS]     > 20 µM

====

# System: FOXC2-expressing HMLER cells
# Experiment Summary: Cell Titer Glo viability of FOXC2-HMLER cells (high throughput screen and 10-point response)
# Type: cell-based
# Condition Set: Homo sapiens; scored relative to parent compound 3; 72 hours; read-out: Activity Score, inhibition of FOXC2-expressing HMLER cells by Formula III compounds
Recorded Metric: IC50

>>> df
                                  cpd_smiles                           tgt      result
 0  Cc1c(C(=O)NCCCN(C)Cc2ccccc2)cccc1-n1nnc2cccnc21  FOXC2-expressing HMLER cells     > 20 µM
 1  CN(Cc1ccccc1)C(=O)c1ccc(-n2nnc3cccnc32)cc1  FOXC2-expressing HMLER cells     > 20 µM
 2  Cc1ccc(C(=O)NCCCN2CCN(c3cccc(Cl)c3)CC2)cc1-n1nnc2cccnc21  FOXC2-expressing HMLER cells     > 20 µM
 3  O=C(c1ccc(-n2nnc3cccnc32)cc1)N1CCN(C2CCCCC2)CC1  FOXC2-expressing HMLER cells     > 20 µM
 4  Cc1ccc(C)c(N2CCN(C(=O)c3cccc(-n4nnc5cccnc54)c3)CC2)c1  FOXC2-expressing HMLER cells      < 1 µM
 5  Cc1ccccc1CNC(=O)c1cccc(-n2nnc3cccnc32)c1C  FOXC2-expressing HMLER cells     > 20 µM
 6  Cc1c(C(=O)NCCCN2CCC(Cc3ccccc3)CC2)cccc1-n1nnc2cccnc21  FOXC2-expressing HMLER cells  1 to 20 µM
 7  Cc1ccc(C)c(N2CCN(C(=O)c3ccc(C)c(-n4nnc5cccnc54)c3)CC2)c1  FOXC2-expressing HMLER cells  1 to 20 µM
 8  Cc1ccc(CN2CCC(CNC(=O)c3cccc(-n4nnc5cccnc54)c3)CC2)cc1  FOXC2-expressing HMLER cells  1 to 20 µM
 9  O=C(c1ccc(-n2nnc3cccnc32)cc1)N1CCN(c2ccccc2)CC1  FOXC2-expressing HMLER cells     > 20 µM
10  COc1ccc(N2CCN(C(=O)c3cccc(-n4nnc5cccnc54)c3)CC2)cc1  FOXC2-expressing HMLER cells     > 20 µM

====

# Tested on: FOXC2-expressing HMLER cells
# Experiment Summary: Cell Titer Glo viability of FOXC2-HMLER cells (high throughput screen and 10-point response)
# Assay type: cell-based
# Condition Set: Homo sapiens; scored relative to parent compound 3; 72 hours; read-out: Activity Score, inhibition of FOXC2-expressing HMLER cells by Formula III compounds
pIC50: −log10 of the molar value.
Recorded Metric: pIC50

In [3]: df
Out[3]:
                                  cpd_smiles  recorded_metric        result
 0  Cc1c(C(=O)N2CCC(N3CCCCC3)CC2)cccc1-n1nnc2cccnc21            pIC50        < 4.70
 1  Cc1ccc(Cl)cc1N1CCN(C(=O)c2cccc(-n3nnc4cccnc43)c2C)CC1            pIC50  4.70 to 6.00
 2  COc1ccc(N2CCN(C(=O)c3ccc(-n4nnc5cccnc54)cc3)CC2)cc1            pIC50        < 4.70
 3  Cc1ccc(Cl)cc1N1CCN(C(=O)c2ccc(C)c(-n3nnc4cccnc43)c2)CC1            pIC50  4.70 to 6.00
 4  Cc1c(C(=O)NCCN(C)C2CCCCC2)cccc1-n1nnc2cccnc21            pIC50        < 4.70
 5     CCCCN(C)C(=O)c1cccc(-n2nnc3cccnc32)c1            pIC50        < 4.70
 6  Cc1c(C(=O)NCCCN2CCC(N3CCCCC3)CC2)cccc1-n1nnc2cccnc21            pIC50        < 4.70
 7  O=C(c1ccc(-n2nnc3cccnc32)cc1)N1CCN(c2ccccc2F)CC1            pIC50  4.70 to 6.00
 8  Cc1ccc(C)c(N2CCN(CCCNC(=O)c3ccc(-n4nnc5cccnc54)cc3)CC2)c1            pIC50  4.70 to 6.00
 9  Cc1ccc(NC(=O)c2ccc(-n3nnc4cccnc43)c(C)c2)cc1            pIC50        < 4.70
10  Cc1ccc(C)c(N2CCN(CCCNC(=O)c3ccc(C)c(-n4nnc5cccnc54)c3)CC2)c1            pIC50  4.70 to 6.00
11  Cc1ccc(Cl)cc1N1CCN(C(=O)c2cccc(-n3nnc4cccnc43)c2)CC1            pIC50        > 6.00
12  Cc1c(C(=O)N2CCN(Cc3ccc4c(c3)OCO4)CC2)cccc1-n1nnc2cccnc21            pIC50        < 4.70
13      Cc1c(C(=O)NC2CC2)cccc1-n1nnc2cccnc21            pIC50  4.70 to 6.00
14  O=C(c1cccc(-n2nnc3cccnc32)c1)N1CCN(C2CCCCC2)CC1            pIC50  4.70 to 6.00
